Please go through the items and note down their viability, T/C.
tested on: LG0703-F498-PDC complex spheroid growth; test: Anticancer human tumor LG0703-F498-PDC patient-derived lung adenocarcinoma cell line growth inhibition [AhR]; settings: second compound 0.316 µM; first compound 0.0949 µM; active compounds read low
Numbers only, in %.

compound	measured_property	result
O=C(C=Cn1cnc(-c2cc(C(F)(F)F)cc(C(F)(F)F)c2)n1)NNc1cnccn1 + Cc1cncc(-c2nc(NCCc3c[nH]c4ccccc34)c3ncn(C(C)C)c3n2)c1	viability, T/C	51.8
CCN(c1cc(-c2ccc(CN3CCOCC3)cc2)cc(C(=O)NCc2c(C)cc(C)[nH]c2=O)c1C)C1CCOCC1 + CC(CO)NC(=O)c1cc(-c2ccc(Cl)cc2)nn(-c2cnn(C)c2)c1=O	viability, T/C	101
O=C(C=Cn1cnc(-c2cc(C(F)(F)F)cc(C(F)(F)F)c2)n1)NNc1cnccn1 + CC(CO)NC(=O)c1cc(-c2ccc(Cl)cc2)nn(-c2cnn(C)c2)c1=O	viability, T/C	42.1
CCc1c2c(nc3ccc(O)cc13)-c1cc3c(c(=O)n1C2)COC(=O)[C@]3(O)CC + Cc1ccccc1N=Nc1ccc(NC(=O)c2ccnn2C)c(C)c1	viability, T/C	35.6
Nc1ncn(C2CC(O)C(CO)S2)c(=O)n1 (centres undefined) + Cc1cncc(-c2nc(NCCc3c[nH]c4ccccc34)c3ncn(C(C)C)c3n2)c1	viability, T/C	109

For each listed entry, give its viability, T/C.
1. CCc1c2c(nc3ccc(O)cc13)-c1cc3c(c(=O)n1C2)COC(=O)[C@]3(O)CC + CC(CO)NC(=O)c1cc(-c2ccc(Cl)cc2)nn(-c2cnn(C)c2)c1=O
2. Nc1ncn(C2CC(O)C(CO)S2)c(=O)n1 (centres undefined) + CC(CO)NC(=O)c1cc(-c2ccc(Cl)cc2)nn(-c2cnn(C)c2)c1=O
3. CCN(c1cc(-c2ccc(CN3CCOCC3)cc2)cc(C(=O)NCc2c(C)cc(C)[nH]c2=O)c1C)C1CCOCC1 + Cc1ccccc1N=Nc1ccc(NC(=O)c2ccnn2C)c(C)c1
4. CCc1c2c(nc3ccc(O)cc13)-c1cc3c(c(=O)n1C2)COC(=O)[C@]3(O)CC + Cc1cncc(-c2nc(NCCc3c[nH]c4ccccc34)c3ncn(C(C)C)c3n2)c1

Reply text:
1: 36.9; 2: 97.1; 3: 95; 4: 25.2

----------
tested on: LG0703-F498-PDC complex spheroid growth; assay: Anticancer human tumor LG0703-F498-PDC cell line growth inhibition [AhR]; conditions: second compound 0.316 µM; first compound 0.949 µM; active compounds read low;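 also: luminescence taken as a proxy for viable cell amount; percent of DMSO vehicle control where 100% means growth equal to vehicle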
measured_property: viability, T/C (%)
Numbers only, in %.

Known results for compounds:
compound	value_units	viability, T/C
CCN(c1cc(-c2ccc(CN3CCOCC3)cc2)cc(C(=O)NCc2c(C)cc(C)[nH]c2=O)c1C)C1CCOCC1 + Cc1cncc(-c2nc(NCCc3c[nH]c4ccccc34)c3ncn(C(C)C)c3n2)c1	%	106
O=C(C=Cn1cnc(-c2cc(C(F)(F)F)cc(C(F)(F)F)c2)n1)NNc1cnccn1 + Cc1ccccc1N=Nc1ccc(NC(=O)c2ccnn2C)c(C)c1	%	46.6
O=C(C=Cn1cnc(-c2cc(C(F)(F)F)cc(C(F)(F)F)c2)n1)NNc1cnccn1 + Cc1cncc(-c2nc(NCCc3c[nH]c4ccccc34)c3ncn(C(C)C)c3n2)c1	%	37.4
CCN(c1cc(-c2ccc(CN3CCOCC3)cc2)cc(C(=O)NCc2c(C)cc(C)[nH]c2=O)c1C)C1CCOCC1 + Cc1ccccc1N=Nc1ccc(NC(=O)c2ccnn2C)c(C)c1	%	102
O=C(C=Cn1cnc(-c2cc(C(F)(F)F)cc(C(F)(F)F)c2)n1)NNc1cnccn1 + CC(CO)NC(=O)c1cc(-c2ccc(Cl)cc2)nn(-c2cnn(C)c2)c1=O	%	35.6

The compound listed as CCN(c1cc(-c2ccc(CN3CCOCC3)cc2)cc(C(=O)NCc2c(C)cc(C)[nH]c2=O)c1C)C1CCOCC1 + CC(CO)NC(=O)c1cc(-c2ccc(Cl)cc2)nn(-c2cnn(C)c2)c1=O has a reported viability, T/C of 114

----------
Test system: LG0703-F498-PDC complex spheroid growth
Assay: Anticancer human tumor LG0703-F498-PDC cell line growth inhibition [AhR];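 also: luminescence taken as a proxy for viable cell amount; percent of DMSO vehicle control where 100% means growth equal to vehicle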
Settings: second compound 1 µM; first compound 1 µM; active compounds read low
From the text: Multicellular complex tumor spheroid response to aryl hydrocarbon receptor antagonists in combination with a variety of drugs and investigational agents in selected tumor cell lines […] Compounds. […] If the clinical Cmax for an agent had not been determined, the highest concentration tested was 10 microM (Table 1). […]
measured_property: viability, T/C (%)
Numbers only, in %.

Below, 2 compounds whose answers are already recorded.
compound	target_or_test_system	viability, T/C (%)
Nc1ncn(C2CC(O)C(CO)O2)c(=O)n1 (stereo not drawn) + Cc1ccccc1N=Nc1ccc(NC(=O)c2ccnn2C)c(C)c1	LG0703-F498-PDC complex spheroid growth	92.6
Nc1ccccc1NC(=O)c1ccc(CNC(=O)OCc2cccnc2)cc1 + Cc1cncc(-c2nc(NCCc3c[nH]c4ccccc34)c3ncn(C(C)C)c3n2)c1	LG0703-F498-PDC complex spheroid growth	36.5

Kindly review the next compound as well.
Form: compound = COc1ccc([C@@H](O)c2cc(-c3ncnc4cc(N5CCOCC5)ccc34)c(F)cc2Cl)nn1 + CC(CO)NC(=O)c1cc(-c2ccc(Cl)cc2)nn(-c2cnn(C)c2)c1=O ; viability, T/C = 83.8

----------
test system: LG0703-F498-PDC complex spheroid growth; experiment: Anticancer human tumor LG0703-F498-PDC cell line growth inhibition [AhR]; settings: second compound 3.16 µM; first compound 1 µM; active compounds read low;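 also: luminescence taken as a proxy for viable cell amount; percent of DMSO vehicle control where 100% means growth equal to vehicle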
So basically: is viability, T/C under 30%? Then TRUE. Not under? Then FALSE.

Before answering, review these 4 worked examples.
compound	target_or_test_system	category
CC1(C)CCC(CN2CCN(c3ccc(C(=O)NS(=O)(=O)c4ccc(NCC5CCOCC5)c([N+](=O)[O-])c4)c(Oc4cnc5[nH]ccc5c4)c3)CC2)=C(c2ccc(Cl)cc2)C1 + Cc1ccccc1N=Nc1ccc(NC(=O)c2ccnn2C)c(C)c1	LG0703-F498-PDC complex spheroid growth	FALSE
NS(=O)(=O)OCC1CC(n2ccc3c(NC4CCc5ccccc54)ncnc32)CC1O (configuration not stated) + CC(CO)NC(=O)c1cc(-c2ccc(Cl)cc2)nn(-c2cnn(C)c2)c1=O	LG0703-F498-PDC complex spheroid growth	FALSE
CC1COCCN1c1cc(C2(S(C)(=N)=O)CC2)nc(-c2ccnc3[nH]ccc23)n1 (configuration not stated) + Cc1ccccc1N=Nc1ccc(NC(=O)c2ccnn2C)c(C)c1	LG0703-F498-PDC complex spheroid growth	FALSE
CC1COCCN1c1cc(-c2ccnn2C)c2ccnc(-c3ccn[nH]3)c2n1 (configuration not stated) + CC(CO)NC(=O)c1cc(-c2ccc(Cl)cc2)nn(-c2cnn(C)c2)c1=O	LG0703-F498-PDC complex spheroid growth	FALSE

Okay, next one:
Inquiry: Just wondering, is viability, T/C of NS(=O)(=O)OCC1CC(n2ccc3c(NC4CCc5ccccc54)ncnc32)CC1O (configuration not stated) + Cc1ccccc1N=Nc1ccc(NC(=O)c2ccnn2C)c(C)c1 below 30%?
Reply text: FALSE

----------
Assignment: determine reported viability, T/C for the given molecules.
test system: LG0703-F498-PDC complex spheroid growth; experiment: Anticancer human tumor LG0703-F498-PDC cell line growth inhibition [AhR]; settings: second compound 1 µM; first compound 3.16 µM; active compounds read low;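 also: luminescence taken as a proxy for viable cell amount; percent of DMSO vehicle control where 100% means growth equal to vehicle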
Give bare numbers, in %.

molecule	result
Nc1ccccc1NC(=O)c1ccc(CNC(=O)OCc2cccnc2)cc1 + Cc1ccccc1N=Nc1ccc(NC(=O)c2ccnn2C)c(C)c1	15.2
O=C(c1cc(Cc2n[nH]c(=O)c3ccccc23)ccc1F)N1CCN(C(=O)C2CC2)CC1 + Cc1ccccc1N=Nc1ccc(NC(=O)c2ccnn2C)c(C)c1	90.2
COc1cc(C2c3cc4c(cc3C(OC3OC5COC(C)OC5C(O)C3O)C3COC(=O)C23)OCO4)cc(OC)c1O (configuration not stated) + Cc1cncc(-c2nc(NCCc3c[nH]c4ccccc34)c3ncn(C(C)C)c3n2)c1	72.2
CC1(C)CCC(CN2CCN(c3ccc(C(=O)NS(=O)(=O)c4ccc(NCC5CCOCC5)c([N+](=O)[O-])c4)c(Oc4cnc5[nH]ccc5c4)c3)CC2)=C(c2ccc(Cl)cc2)C1 + Cc1cncc(-c2nc(NCCc3c[nH]c4ccccc34)c3ncn(C(C)C)c3n2)c1	97.7
O=C(c1cc(Cc2n[nH]c(=O)c3ccccc23)ccc1F)N1CCN(C(=O)C2CC2)CC1 + CC(CO)NC(=O)c1cc(-c2ccc(Cl)cc2)nn(-c2cnn(C)c2)c1=O	86.1

Hey, can you go through the list below and give me viability, T/C for every item?
1. COc1cccc2c1C(=O)c1c(O)c3c(c(O)c1C2=O)CC(O)(C(=O)CO)CC3OC1CC(N)C(O)C(C)O1 (configuration not stated) + CC(CO)NC(=O)c1cc(-c2ccc(Cl)cc2)nn(-c2cnn(C)c2)c1=O
2. COc1cccc2c1C(=O)c1c(O)c3c(c(O)c1C2=O)CC(O)(C(=O)CO)CC3OC1CC(N)C(O)C(C)O1 (configuration not stated) + Cc1cncc(-c2nc(NCCc3c[nH]c4ccccc34)c3ncn(C(C)C)c3n2)c1
3. O=C(C=Cc1cccc(S(=O)(=O)Nc2ccccc2)c1)NO + CC(CO)NC(=O)c1cc(-c2ccc(Cl)cc2)nn(-c2cnn(C)c2)c1=O
4. NS(=O)(=O)OCC1CC(n2ccc3c(NC4CCc5ccccc54)ncnc32)CC1O (configuration not stated) + CC(CO)NC(=O)c1cc(-c2ccc(Cl)cc2)nn(-c2cnn(C)c2)c1=O
5. Nc1ccccc1NC(=O)c1ccc(CNC(=O)OCc2cccnc2)cc1 + CC(CO)NC(=O)c1cc(-c2ccc(Cl)cc2)nn(-c2cnn(C)c2)c1=O
6. O=C(C=Cc1cccc(S(=O)(=O)Nc2ccccc2)c1)NO + Cc1ccccc1N=Nc1ccc(NC(=O)c2ccnn2C)c(C)c1

Reply text:
10
1.11
8.18
36.8
3.74
12.6

For record CC1COCCN1c1cc(C2(S(C)(=N)=O)CC2)nc(-c2ccnc3[nH]ccc23)n1 (configuration not stated) + Cc1ccccc1N=Nc1ccc(NC(=O)c2ccnn2C)c(C)c1 the listed viability, T/C is 82.1

These measurements were taken from PubChem BioAssay AID1919013.
